target: HIV-1 protease (Human immunodeficiency virus type 1 group M subtype B); construct: The protease (or proteinase), consisting of only 99 amino acids, is among the smallest enzymes known; assay: In vitro HIV protease inhibitory assay (HIV Protease FITC Assay); format: biochemical; details: HIV-1 Dose 0.410 uM; read-out: HIV-1 Protease % Inhib
measure: inhibition at 0.41 µM (%)
API: value field is a number in %; no unit string.

Illustrative cases are given below, each with its answer.
query: Dear colleague, please send me the reported inhibition at 0.41 µM for O=c1oc(C(Cc2ccccc2)Cc2ccccn2)cc(O)c1C(c1ccccc1)C1CC1 (centres unmarked) when you can.
result: 29.2

query: Dear colleague, please send me the reported inhibition at 0.41 µM for CCC(CCOCCOC)c1cc(O)c(C(c2ccccc2)C2CC2)c(=O)o1 (centres unmarked) when you can.
result: 57.4

// switching to the query molecule
query: Dear colleague, please send me the reported inhibition at 0.41 µM for CCC(Cc1ccco1)c1cc(O)c(C(c2ccccc2)C2CC2)c(=O)o1 (centres unmarked) when you can.
result: 64.2

====

target: HIV-1 protease (Human immunodeficiency virus type 1 group M subtype B, UniProt P04585); construct: The protease (or proteinase), consisting of only 99 amino acids, is among the smallest enzymes known; assay: In vitro HIV protease inhibitory assay (HIV Protease FITC Assay); assay type: biochemical; conditions: HIV-1 Dose 3.700 uM; read-out: HIV-1 Protease % Inhib
Recorded inhibition at 3.7 µM values for a group of compounds are listed next.
API: value field is a number in %; no unit string.

Illustrative cases are given below, each with its answer.
query: Write inhibition at 3.7 µM of CCC(Cc1cccs1)c1cc(O)c(C(c2ccccc2)C2CC2)c(=O)o1 (stereo not drawn) [Example 57] ; system used: HIV-1 protease (Human immunodeficiency virus type 1 group M subtype B, UniProt P04585)
result: 103

query: Write inhibition at 3.7 µM of CCC(CC1CCCO1)c1cc(O)c(C(c2ccccc2)C2CC2)c(=O)o1 (stereo not drawn) [Example 56] ; system used: HIV-1 protease (Human immunodeficiency virus type 1 group M subtype B, UniProt P04585)
result: 106

query: Write inhibition at 3.7 µM of CCC(c1ccccc1)c1c(O)c(Br)c(C(CC2CC2)CC2CC2)oc1=O (stereo not drawn) [Example 77] ; system used: HIV-1 protease (Human immunodeficiency virus type 1 group M subtype B, UniProt P04585)
result: 101

---
query: Write inhibition at 3.7 µM of COCCOCCC(Cc1ccccc1)c1cc(O)c(C(c2ccccc2)C2CC2)c(=O)o1 (stereo not drawn) [Example 107] ; system used: HIV-1 protease (Human immunodeficiency virus type 1 group M subtype B, UniProt P04585)
result: 100

query: Write inhibition at 3.7 µM of O=c1oc(C(Cc2ccccc2)Cc2ccccn2)cc(O)c1C(c1ccccc1)C1CC1 (stereo not drawn) [Example 46] ; system used: HIV-1 protease (Human immunodeficiency virus type 1 group M subtype B, UniProt P04585)
result: 91.6

query: Write inhibition at 3.7 µM of COCCOCCOCCc1c(C(CC2CC2)CC2CC2)oc(=O)c(C(c2ccccc2)C2CC2)c1O (stereo not drawn) [Example 112] ; system used: HIV-1 protease (Human immunodeficiency virus type 1 group M subtype B, UniProt P04585)
result: 10.4

query: Write inhibition at 3.7 µM of O=c1oc(CCc2ccccn2)cc(O)c1C(c1ccccc1)C1CC1 (stereo not drawn) [Example 49] ; system used: HIV-1 protease (Human immunodeficiency virus type 1 group M subtype B, UniProt P04585)
result: 52.3

query: Write inhibition at 3.7 µM of CCC(CC1CCOC1)c1cc(O)c(C(c2ccccc2)C2CC2)c(=O)o1 (stereo not drawn) [Example 45] ; system used: HIV-1 protease (Human immunodeficiency virus type 1 group M subtype B, UniProt P04585)
result: 101

====

Recorded inhibition at 1 µM values for a group of compounds are listed next.
target: HIV-1 protease (Human immunodeficiency virus type 1 group M subtype B, UniProt P04585); construct: The protease (or proteinase), consisting of only 99 amino acids, is among the smallest enzymes known; assay: In vitro HIV protease inhibitory assay (HIV Protease FITC Assay); assay type: biochemical; conditions: HIV-1 Dose 1.000 uM; read-out: HIV-1 Protease % Inhib
API: value field is a number in %; no unit string.

query: Write inhibition at 1 µM of CCC(c1ccccc1)c1c(O)cc(CCc2ccc(Br)cc2)oc1=O (centres unmarked) ; system used: HIV-1 protease (Human immunodeficiency virus type 1 group M subtype B, UniProt P04585)
result: 15.6

query: Write inhibition at 1 µM of CCC(c1ccccc1)c1c(O)cc(C(Cc2ccccc2)Cc2ccccc2)oc1=O (centres unmarked) ; system used: HIV-1 protease (Human immunodeficiency virus type 1 group M subtype B, UniProt P04585)
result: 52.2

query: Write inhibition at 1 µM of CC(C)(C)OC(=O)CCc1cc(O)c(C(c2ccccc2)C2CC2)c(=O)o1 (centres unmarked) ; system used: HIV-1 protease (Human immunodeficiency virus type 1 group M subtype B, UniProt P04585)
result: 19.7

query: Write inhibition at 1 µM of CCC1(CC)CC(=O)C(CCCc2ccccc2)C(=O)O1 (centres unmarked) ; system used: HIV-1 protease (Human immunodeficiency virus type 1 group M subtype B, UniProt P04585)
result: 14.7

query: Write inhibition at 1 µM of CCCC1(c2ccccc2)CC(=O)C(C(CC)c2cccc(O)c2)C(=O)O1 (centres unmarked) ; system used: HIV-1 protease (Human immunodeficiency virus type 1 group M subtype B, UniProt P04585)
result: 23.8

query: Write inhibition at 1 µM of CCC(CCc1ccccc1)c1cc(O)c(C(c2ccccc2)C2CC2)c(=O)o1 (centres unmarked) ; system used: HIV-1 protease (Human immunodeficiency virus type 1 group M subtype B, UniProt P04585)
result: 71.5

query: Write inhibition at 1 µM of COCCOCCCc1oc(=O)c(C(c2ccccc2)C2CC2)c(O)c1CCOCCOC (centres unmarked) ; system used: HIV-1 protease (Human immunodeficiency virus type 1 group M subtype B, UniProt P04585)
result: 26.6

query: Write inhibition at 1 µM of C=CCC(CC=C)c1cc(O)c(C(c2ccccc2)C2CC2)c(=O)o1 (centres unmarked) ; system used: HIV-1 protease (Human immunodeficiency virus type 1 group M subtype B, UniProt P04585)
result: 75.9

query: Write inhibition at 1 µM of O=c1oc(CCCc2ccccc2)cc(O)c1C(c1ccccc1)C1CC1 (centres unmarked) ; system used: HIV-1 protease (Human immunodeficiency virus type 1 group M subtype B, UniProt P04585)
result: 17.6

query: Write inhibition at 1 µM of CCCC1(c2ccccc2)CC(O)=C(C(CC)c2cccc(O)c2)C(=O)O1 (centres unmarked) ; system used: HIV-1 protease (Human immunodeficiency virus type 1 group M subtype B, UniProt P04585)
result: 46.4

---
query: Write inhibition at 1 µM of CC(c1cc(O)c(C(C2CC2)C2CC2)c(=O)o1)C1CC1 (centres unmarked) ; system used: HIV-1 protease (Human immunodeficiency virus type 1 group M subtype B, UniProt P04585)
result: 10.5

query: Write inhibition at 1 µM of CCC(c1ccccc1)c1c(O)cc(C=Cc2ccc(OC)cc2)oc1=O (centres unmarked) ; system used: HIV-1 protease (Human immunodeficiency virus type 1 group M subtype B, UniProt P04585)
result: 21.5

query: Write inhibition at 1 µM of CCC(c1ccccc1)c1c(O)cc(CCc2ccccc2F)oc1=O (centres unmarked) ; system used: HIV-1 protease (Human immunodeficiency virus type 1 group M subtype B, UniProt P04585)
result: 14

====

Recorded inhibition at 10 µM values for a group of compounds are listed next.
biological target: HIV-1 protease (Human immunodeficiency virus type 1 group M subtype B, UniProt P04585); construct: The protease (or proteinase), consisting of only 99 amino acids, is among the smallest enzymes known; test: In vitro HIV protease inhibitory assay (HIV Protease FITC Assay); assay type: biochemical; conditions: HIV-1 Dose 10.000 uM; read-out: HIV-1 Protease % Inhib
API: value field is a number in %; no unit string.

query: Dear colleague, please send me the reported inhibition at 10 µM for CCC(CC1CCCOC1)c1cc(O)c(C(CC)c2ccccc2)c(=O)o1 (centres unmarked) [Example 135] when you can.
result: 103

---
query: Dear colleague, please send me the reported inhibition at 10 µM for CCC(Cc1ccccc1)c1cc(O)c(C(c2cccc(NC(=O)NCc3ccccc3)c2)C2CC2)c(=O)o1 (centres unmarked) [Example 213] when you can.
result: 83.7

query: Dear colleague, please send me the reported inhibition at 10 µM for CCC(Cc1ccccc1)c1cc(O)c(C(c2cccc(NS(=O)(=O)c3ccccc3)c2)C2CC2)c(=O)o1 (centres unmarked) [Example 178] when you can.
result: 104

query: Dear colleague, please send me the reported inhibition at 10 µM for CCCCC1(Cc2ccccc2)CC(O)=C(C(CCc2ccccc2)c2ccccc2)C(=O)O1 (centres unmarked) [Example 218] when you can.
result: 59.3

query: Dear colleague, please send me the reported inhibition at 10 µM for C=CCC(CC=C)c1cc(O)c(C(c2ccccc2)C2CC2)c(=O)o1 (centres unmarked) [Example 97] when you can.
result: 99.6

query: Dear colleague, please send me the reported inhibition at 10 µM for CCC(Cc1ccccc1)c1cc(O)c(C(c2cccc(NS(=O)(=O)c3ccc(Br)cc3)c2)C2CC2)c(=O)o1 (centres unmarked) [Example 181] when you can.
result: 101

query: Dear colleague, please send me the reported inhibition at 10 µM for CCC(Cc1cccc(OC)c1)c1cc(O)c(C(c2ccccc2)C2CC2)c(=O)o1 (centres unmarked) [Example 164] when you can.
result: 84.8

query: Dear colleague, please send me the reported inhibition at 10 µM for O=c1oc(CCCCc2ccccc2)cc(O)c1C(c1ccccc1)C1CC1 (centres unmarked) [Example 91] when you can.
result: 27.8
